- MEASUREMENT NOTES: Inhibition of Trypanosoma brucei cathepsin B expressed in Pichia pastoris
pIC50: −log10 of the molar value.
RESULT TYPE: pIC50

# SMILES REPR, RESULT TYPE, QUALIFIER SIGN, VAL
records = [
    ("N#Cc1nc(NCc2cccc(-c3cc4ccccc4n3S(=O)(=O)c3ccccc3)c2)c2ncn(CCCO)c2n1", "pIC50", "<", 4.82),
    ("N#Cc1nc(NCc2cccc(-c3ccc(Cl)c(Cl)c3)c2)c2ncn(CCCO)c2n1", "pIC50", "=", 5.92),
    ("N#Cc1nc(NCc2cccc(-c3ccccc3Cl)c2)c2ncn(CCCO)c2n1", "pIC50", "=", 5.89),
    ("N#Cc1nc(NCc2cccc(-c3cc(Cl)cc(Cl)c3)c2)c2ncn(CCCO)c2n1", "pIC50", "=", 5.92),
    ("Cc1ccccc1-c1cccc(CNc2nc(C#N)nc3c2ncn3CCCO)c1", "pIC50", "=", 6.41),
    ("N#Cc1nc(NCc2cccc(-c3ccc4ccccc4c3)c2)c2ncn(CCCO)c2n1", "pIC50", "=", 6.64),
    ("N#Cc1nc(NCc2cccc(-c3cn(S(=O)(=O)c4ccccc4)c4ccccc34)c2)c2ncn(CCCO)c2n1", "pIC50", "<", 4.82),
    ("N#Cc1nc(NCc2cccc(-c3c(F)c(F)c(F)c(F)c3F)c2)c2ncn(CCCO)c2n1", "pIC50", "=", 6.05),
    ("COc1ccc(-c2cccc(CNc3nc(C#N)nc4c3ncn4CCCO)c2)cc1", "pIC50", "=", 5.92),
]

---

Entries below carry reported pIC50 on UniProt:Q95PM0.
pIC50: −log10 of the molar value.

# SMILES REPR, SYSTEM TESTED, QUALIFIER SIGN, pIC50
measured = [
    ("N#Cc1nc(NCc2cccc(-c3c(F)c(F)c(F)c(F)c3F)c2)c2ncn(CCCO)c2n1", "UniProt:Q95PM0", "=", 5.28),
    ("N#Cc1nc(NCc2cccc(-c3ccoc3)c2)c2ncn(CCCO)c2n1", "UniProt:Q95PM0", "=", 7.52),
    ("COC(=O)c1cccc(-c2cccc(CNc3nc(C#N)nc4c3ncn4CCCO)c2)c1", "UniProt:Q95PM0", "=", 6.30),
    ("COC(=O)c1ccccc1-c1cccc(CNc2nc(C#N)nc3c2ncn3CCCO)c1", "UniProt:Q95PM0", "<", 5.00),
    ("N#Cc1nc(NCc2cccc(-c3ccccc3)c2)c2ncn(CCCO)c2n1", "UniProt:Q95PM0", "=", 6.15),
    ("N#Cc1nc(NCc2cccc(-c3cccnc3)c2)c2ncn(CCCO)c2n1", "UniProt:Q95PM0", "=", 6.59),
    ("C=Cc1ccc(-c2cccc(CNc3nc(C#N)nc4c3ncn4CCCO)c2)cc1", "UniProt:Q95PM0", "=", 5.74),
    ("N#Cc1nc(NCc2cccc(-c3ccccc3C(F)(F)F)c2)c2ncn(CCCO)c2n1", "UniProt:Q95PM0", "=", 5.10),
    ("N#Cc1nc(NCc2cccc(-c3ccc(Cl)c(Cl)c3)c2)c2ncn(CCCO)c2n1", "UniProt:Q95PM0", "=", 6.05),
    ("N#Cc1nc(NCc2cccc(-c3ccc4ccccc4c3)c2)c2ncn(CCCO)c2n1", "UniProt:Q95PM0", "=", 6.15),
]

---

Entries below carry reported pIC50 on Procathepsin L (Homo sapiens).
Sequence (P07711 whole entry): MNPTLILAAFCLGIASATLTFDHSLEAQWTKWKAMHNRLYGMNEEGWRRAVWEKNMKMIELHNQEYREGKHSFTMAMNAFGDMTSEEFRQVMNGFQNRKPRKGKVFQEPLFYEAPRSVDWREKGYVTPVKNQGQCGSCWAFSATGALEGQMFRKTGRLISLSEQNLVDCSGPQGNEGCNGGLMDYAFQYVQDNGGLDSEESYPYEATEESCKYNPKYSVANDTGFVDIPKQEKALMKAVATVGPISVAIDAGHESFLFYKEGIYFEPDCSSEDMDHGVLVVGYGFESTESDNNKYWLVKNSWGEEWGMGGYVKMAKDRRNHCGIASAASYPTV
pIC50: −log10 of the molar value.

# SMILES REPR, pIC50
measured = [
    ("N#Cc1nc(NCc2cccc(-c3ccco3)c2)c2ncn(CCCO)c2n1", 6.08),
    ("N#Cc1nc(NCc2cccc(-c3cc(Cl)cc(Cl)c3)c2)c2ncn(CCCO)c2n1", 6.05),
    ("CC(C)c1ccccc1-c1cccc(CNc2nc(C#N)nc3c2ncn3CCCO)c1", 6.05),
    ("N#Cc1nc(NCc2cccc(-c3cccc(Cl)c3)c2)c2ncn(CCCO)c2n1", 6.15),
    ("COc1ncc(-c2cccc(CNc3nc(C#N)nc4c3ncn4CCCO)c2)c(OC)n1", 5.22),
    ("N#Cc1nc(NCc2cccc(-c3cccs3)c2)c2ncn(CCCO)c2n1", 6.05),
    ("COC(=O)c1ccccc1-c1cccc(CNc2nc(C#N)nc3c2ncn3CCCO)c1", 5.85),
    ("CN(C)c1cccc(-c2cccc(CNc3nc(C#N)nc4c3ncn4CCCO)c2)c1", 5.85),
]

---

- MEASUREMENT NOTES: Inhibition of Trypanosoma brucei cathepsin B expressed in Pichia pastoris
Threshold 500 nM: IC50 strictly smaller gives True, otherwise False.

# SMILES REPR, CATEGORY
measured = [
    ("N#Cc1nc(NCc2cccc(-c3ccoc3)c2)c2ncn(CCCO)c2n1", "True"),
    ("N#Cc1nc(NCc2cccc(-c3ccc4[nH]ccc4c3)c2)c2ncn(CCCO)c2n1", "True"),
    ("N#Cc1nc(NCc2cccc(-c3cccnc3)c2)c2ncn(CCCO)c2n1", "False"),
    ("CN(C)c1cccc(-c2cccc(CNc3nc(C#N)nc4c3ncn4CCCO)c2)c1", "False"),
    ("C=Cc1ccc(-c2cccc(CNc3nc(C#N)nc4c3ncn4CCCO)c2)cc1", "False"),
    ("N#Cc1nc(NCc2cccc(-c3ccsc3)c2)c2ncn(CCCO)c2n1", "True"),
    ("COc1ncc(-c2cccc(CNc3nc(C#N)nc4c3ncn4CCCO)c2)c(OC)n1", "False"),
    ("Cc1cccc(C)c1-c1cccc(CNc2nc(C#N)nc3c2ncn3CCCO)c1", "True"),
    ("N#Cc1nc(NCc2cccc(-c3ccccc3)c2)c2ncn(CCCO)c2n1", "False"),
    ("CC(=O)Nc1cccc(-c2cccc(CNc3nc(C#N)nc4c3ncn4CCCO)c2)c1", "False"),
]

---

- MEASUREMENT NOTES: Inhibition of Trypanosoma brucei cathepsin B expressed in Pichia pastoris

# SMILES REPR, IC50 (nM)
measured = [
    ("CC(C)Oc1c(Br)cccc1-c1cccc(CNc2nc(C#N)nc3c2ncn3CCCO)c1", 900),
    ("N#Cc1nc(NCc2cccc(-c3cccc(Cl)c3)c2)c2ncn(CCCO)c2n1", 800),
    ("N#Cc1nc(NCc2cccc(-c3ccco3)c2)c2ncn(CCCO)c2n1", 1000),
    ("C=Cc1cccc(-c2cccc(CNc3nc(C#N)nc4c3ncn4CCCO)c2)c1", 800),
    ("N#Cc1nc(NCc2cccc(-c3ccccc3C(F)(F)F)c2)c2ncn(CCCO)c2n1", 280),
    ("COC(=O)c1ccc(-c2cccc(CNc3nc(C#N)nc4c3ncn4CCCO)c2)cc1", 1600),
    ("COC(=O)c1ccccc1-c1cccc(CNc2nc(C#N)nc3c2ncn3CCCO)c1", 1000),
    ("N#Cc1nc(NCc2cccc(-c3ccc4cc[nH]c4c3)c2)c2ncn(CCCO)c2n1", 240),
    ("CC(C)c1ccccc1-c1cccc(CNc2nc(C#N)nc3c2ncn3CCCO)c1", 310),
    ("N#Cc1nc(NCc2cccc(-c3cccs3)c2)c2ncn(CCCO)c2n1", 600),
]

---

Entries below carry reported IC50 on Rhodesain (Trypanosoma brucei rhodesiense, UniProt Q95PM0).
Sequence (Q95PM0 whole entry): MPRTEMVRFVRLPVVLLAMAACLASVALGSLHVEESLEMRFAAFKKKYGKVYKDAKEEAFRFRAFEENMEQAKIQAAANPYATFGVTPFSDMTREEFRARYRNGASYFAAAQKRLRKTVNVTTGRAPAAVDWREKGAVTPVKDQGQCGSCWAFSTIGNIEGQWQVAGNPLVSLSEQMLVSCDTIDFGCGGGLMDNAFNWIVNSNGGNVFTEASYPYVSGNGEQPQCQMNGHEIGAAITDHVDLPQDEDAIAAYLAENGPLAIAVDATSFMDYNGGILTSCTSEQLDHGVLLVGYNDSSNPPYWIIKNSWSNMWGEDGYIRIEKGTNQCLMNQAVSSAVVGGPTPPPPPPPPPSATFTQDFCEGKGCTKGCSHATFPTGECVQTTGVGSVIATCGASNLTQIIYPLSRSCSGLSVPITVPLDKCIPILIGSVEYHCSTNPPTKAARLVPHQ

# SMILES REPR, QUANTITY UNIT, QUALIFIER SIGN, IC50
records = [
    ("Cc1ccccc1-c1cccc(CNc2nc(C#N)nc3c2ncn3CCCO)c1", "nM", ">", 50000),
    ("N#Cc1nc(NCc2cccc(-c3cc4ccccc4n3S(=O)(=O)c3ccccc3)c2)c2ncn(CCCO)c2n1", "nM", "=", 9000),
    ("CC(C)Oc1c(Br)cccc1-c1cccc(CNc2nc(C#N)nc3c2ncn3CCCO)c1", "nM", "=", 1500),
    ("CN(C)c1cccc(-c2cccc(CNc3nc(C#N)nc4c3ncn4CCCO)c2)c1", "nM", "=", 900),
    ("N#Cc1nc(NCc2cccc(-c3ccc4cc[nH]c4c3)c2)c2ncn(CCCO)c2n1", "nM", "=", 260),
    ("N#Cc1nc(NCc2cccc(-c3ccco3)c2)c2ncn(CCCO)c2n1", "nM", "=", 310),
    ("N#Cc1nc(NCc2cccc(-c3cc(Cl)cc(Cl)c3)c2)c2ncn(CCCO)c2n1", "nM", "=", 1100),
    ("N#Cc1nc(NCc2cccc(-c3ccc4[nH]ccc4c3)c2)c2ncn(CCCO)c2n1", "nM", "=", 500),
    ("N#Cc1nc(NCc2cccc(-c3cccc(Cl)c3)c2)c2ncn(CCCO)c2n1", "nM", "=", 1200),
    ("N#Cc1nc(NCc2cccc(-c3ccccc3Cl)c2)c2ncn(CCCO)c2n1", "nM", "=", 20000),
]
